- RUN_DESCRIPTION: chemical genetic growth profiling, strain panel (AID 1159580);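 further: tested at 20 µM; growth read once vehicle control cultures reached saturation at 30 °C; 1 = growth at the plate median or of vehicle wells; lower values mean less growth of the strain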
- REPORTED_CONDITIONS: S. cerevisiae deletion strains, growth OD, locus YHR129C, strain ARP1, stronger effect = lower value
Screen size: about 5,500 compounds; about 2,000 (36%) were called active. About 18% were inconclusive and are not listed. The list shows a part of the results.
READOUT_LABEL: normalized growth

MOLECULE | READOUT_LABEL | RESULT_VALUE
Clc1ccc(COC(Cn2ccnc2)c2ccc(Cl)cc2Cl)c(Cl)c1 (stereo not given) | normalized growth | 0.0576 (active)

Query: Recorded normalized growth for CC(=O)C1CC[C@H]2C3CC[C@H]4C[C@H](O)CC[C@]4(C)C3CC[C@]12C (stereo not given in full) , please?
Response: 1 (inactive)

Query: Recorded normalized growth for Clc1ccc(COC(Cn2ccnc2)c2ccc(Cl)cc2Cl)cc1 (stereo not given) , please?
Response: 0.0576 (active)

---

- RUN_DESCRIPTION: chemical genetic growth profiling, strain panel (AID 1159580);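 further: tested at 20 µM; growth read once vehicle control cultures reached saturation at 30 °C; 1 = growth at the plate median or of vehicle wells; lower values mean less growth of the strain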
- REPORTED_CONDITIONS: S. cerevisiae deletion strains, growth OD, locus YJL154C, strain vps35, stronger effect = lower value
Among all 5,500 compounds or so, about 2,000 (36%) were called active. Not shown: some 18% with an inconclusive outcome. The list shows a part of the results. Where a SMILES comes first, the peptide text is derived from it.
Quick reference for normalized growth among some compounds

Solved cases (5 shown):
COMPOUND | READOUT_LABEL | RESULT_VALUE
O=C(O)C1CCCNC1 (centres undefined) | normalized growth | 1.03 (inactive)
CC(=O)N[C@@H](CC(=O)O)C(=O)N[C@@H](CCC(=O)O)C(=O)O (Ac-Asp-Glu-OH) | normalized growth | 1 (inactive)
CN[C@@H]1C(OC2[C@H](O[C@H]3[C@H](O)[C@@H](O)[C@H](N=C(N)N)[C@@H](O)[C@@H]3N=C(N)N)OC(C)[C@]2(O)CO)OC(CO)C(O)C1O (some centres undefined) | normalized growth | 1.01 (inactive)
CC12CCCCC1(Br)[N+](=O)N2[O-] (centres undefined) | normalized growth | 0.997 (inactive)
CCCCCCCCCCCCCC(=O)OC1C(C)C2(O)C(C=C(CO)CC3(O)C(=O)C(C)=CC32)C2C(C)(C)C12OC(C)=O (centres undefined) | normalized growth | 0.986 (inactive)

Query: Recorded normalized growth for C[C@]12C=CC(=O)C=C1CCC1C2[C@@H](O)C[C@@]2(C)C1CC[C@]2(O)C(=O)CO (some centres undefined) , please?
Response: 0.998 (inactive)

Query: Recorded normalized growth for Clc1ccc(COC(Cn2ccnc2)c2ccc(Cl)cc2Cl)cc1 (centres undefined) , please?
Response: 0.0599 (active)

Query: Recorded normalized growth for `Fc1ccc([C@@H]2CCNC[C@H]2COc2ccc3c(c2)OCO3)cc1` , please?
Response: 1.02 (inactive)

Query: Recorded normalized growth for `Clc1ccc(CO/N=C(/Cn2ccnc2)c2ccc(Cl)cc2Cl)c(Cl)c1` , please?
Response: 0.0641 (active)

---

Quick reference for normalized growth among some compounds
- RUN_DESCRIPTION: chemical genetic growth profiling, strain panel (AID 1159580);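 further: tested at 20 µM; growth read once vehicle control cultures reached saturation at 30 °C; 1 = growth at the plate median or of vehicle wells; lower values mean less growth of the strain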
- REPORTED_CONDITIONS: S. cerevisiae deletion strains, growth OD, locus YJL129C, strain trk1, stronger effect = lower value
In all, about 5,500 compounds went through this assay and about 2,000 (36%) were called active. Inconclusive results (about 18%) are left out. The list shows a part of the results.

Query: Recorded normalized growth for `O=C1CCCN1CC#CCN1CCCC1` , please?
Response: 1.04 (inactive)

Query: Recorded normalized growth for CC(=O)O[C@H]1CC[C@@]2(C)C(C[C@@H](OC(C)=O)[C@]3(C)C2CC[C@@]2(C)[C@H](c4ccoc4)OC(=O)[C@H]4O[C@]423)C1(C)C (some centres undefined) , please?
Response: 0.987 (inactive)

Query: Recorded normalized growth for COC(=O)[C@@H]1OC(=O)C2OC23[C@@]1(C)CCC1[C@]2(C)C(C[C@@H](O)[C@]13C)C(C)(C)[C@H](OC(C)=O)C[C@@H]2OC(C)=O (some centres undefined) , please?
Response: 0.995 (inactive)

Query: Recorded normalized growth for CC(=O)O[C@@H]1CC2C(C)(C)[C@H](O)C=C[C@]2(C)C2CC[C@@]3(C)[C@H](c4ccoc4)OC(=O)C4OC43[C@@]21C (some centres undefined) , please?
Response: 1.04 (inactive)
